Biological target: human Edg-1 (S1P1) (Homo sapiens, UniProt P21453)
Construct: expressed in transfected cells; host or cells: HEK-293
Sequence (P21453 whole entry): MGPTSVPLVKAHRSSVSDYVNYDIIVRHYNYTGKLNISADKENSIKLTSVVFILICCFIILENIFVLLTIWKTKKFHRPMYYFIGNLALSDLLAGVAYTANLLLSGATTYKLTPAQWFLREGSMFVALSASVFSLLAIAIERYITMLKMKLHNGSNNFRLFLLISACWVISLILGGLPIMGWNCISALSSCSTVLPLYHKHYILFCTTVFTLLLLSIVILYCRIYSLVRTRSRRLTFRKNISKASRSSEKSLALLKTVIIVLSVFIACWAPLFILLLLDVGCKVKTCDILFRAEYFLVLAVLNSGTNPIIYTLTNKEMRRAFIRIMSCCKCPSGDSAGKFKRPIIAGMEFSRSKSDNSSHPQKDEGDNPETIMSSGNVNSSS
Experiment: S1P1 binding assay: inhibition of [33P]-S1P binding to membrane fraction of HEK-293 cells transferred with the human Edg-1 (S1P1) gene
Conditions: test compound 10 μM; inhibition of [33P]-S1P binding, membrane fraction
ATTRIBUTE_MEASURED: inhibition at 10 µM (%)
Give just the number in %; leave the unit off.

CCn1c(Oc2cccc(N3CCN(C)CC3)c2)nnc1[C@@H](C)NS(=O)(=O)c1cc(C)ccc1F
88.4
CCn1c(Oc2cccc(N3CCN(C)CC3)c2)nnc1[C@@H](C)NS(=O)(=O)Cc1ccc(Cl)c(Cl)c1
87.9
CCn1c(Oc2ccc3cc[nH]c3c2)nnc1[C@@H](C)NS(=O)(=O)c1ccc(Cl)c(S(N)(=O)=O)c1
65.3

Now look at this entry.
*Q* Indicate its recorded inhibition at 10 µM; the compound in question is CCn1c(Oc2ccc3cc[nH]c3c2)nnc1[C@@H](C)NS(=O)(=O)c1ccc(C(C)C)cc1
*A* 60.2
